# tgt: recombinant soluble trimeric 2009 H1 HA (A/California/04/2009, wild type) (Influenza A virus A/California/04/2009 (H1N1))
# measurementNotes: ELISA, supernate
Recorded OD values for a group of binders are listed next.
Output spec: scalar in OD, unitless text.

| binder | quantityUnit | OD |
| --- | --- | --- |
| mAb 3J10 (antibody, V domains shown) VH: EVQLVESGGGVVQPGRSLRLSCAASGFSFSNYAMHWVRQAPGKGLEWVALISFDGSDKYYADSVKGRFTMSRDNSKNTLYLQMNSLRAEDTAVYYCARDEPYCGGDCFAFDVWGQGTMVTVS VL: QSVLTQPPSVSGAPGQRVTISCTGSSSNIGAGYDVHWYQQLPGTAPKLLIYANNNRPSGVPDRFSGSKSGTSASLAITGLQAEDEADYYCQSYDSSLSGGVFGTGTTVTVLG | OD | 0.073 |
| mAb 18G6 (antibody, V domains shown) VH: QVQLKESGPGLVKPSETLSLTCTVSGGSISSSNYNWGWIRQPPGKGLEWIGSVYYSGSTYFNPSLKSRVTISVDTSKNQFSLKLTSVTAADTAVYYCARLIAFYYDTNGYTWGQGTLVTVS VL: NSIMTQSPFTLSASVGDKVTITCRASQSISPWLAWYQQKPGKAPKLLIYKASSLETGVPSRFSGSESGTEFTLTISGLQPDDFATYYCQQYSSFARTFGQGTKVEIKR | OD | 0.071 |
| mAb 5J8 (antibody, V domains shown) VH: EVQLVESGPGLVKPSDILSLTCAVSGYSISSNYYWGWIRQPPGKGLEWIGSIYHSGSTYYKPSLESRLGISVDTSKNQFSLKLSFVSAADTAVYYCARHVRSGYPDTAYYFDKWGQGTLVTVS VL: SYVLTQPPSVSVAPGETARISCGGNNIGTKVLHWYQQTPGQAPVLVVYDDSDRPSGIPERFSGSNSGNTATLTISRVEVGDEADYYCQVWDISTDQAVFGGGTKLTVLG | OD | 1.93 |

Need OD of mAb 11J19 (antibody, V domains shown) VH: EVQLQESGPGLVKPSETLSLSCTVSGGSITRSSYYWGWIRQPPGKGLEWIGNIYYSGTTYYNPSLKSRVTISVDTSKNQFSLKLSSVTAADTAVYYCARLYGSGLDYWGQGTLVTVS VL: DIQLTQSPSFLSASVGDRVTITCRASQGSSRYVAWYQQKPGKAPKLLILAASTLHTGVPSRFSGSGSGTEFTLTISSLQPEDFATYSCQQLNGFLLTFGGGTKVEIKR , thanks. 0.081
